Test system: 616215-338-R-J1-PDC tumor spheroids, viability;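 note: spheroids exposed to agents for 7 days before readout; percent viability relative to DMSO vehicle control wells taken as 100%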
Assay info: Anticancer human tumor 616215-338-R-J1-PDC patient-derived colon adenocarcinoma cell line growth inhibition [GQUAD]
Assay setup: second compound 3.16 µM; first compound 1 µM; hits give low values; spheroids with HUVEC and MSC
Outcome measure: viability, T/C (%)

compound="COc1ncnc(C2CC2)c1-c1ncc2cnn(Cc3ccc(-c4nc(C(F)(F)F)cn4C(C)C)cc3)c2n1 + CN(C)c1ccc(Nc2c3ccc(NC(=O)CCN4CCCC4)cc3nc3cc(NC(=O)CCN4CCCC4)ccc23)cc1" reported_measurement=105
compound="CC(C)n1c(=O)n(C)c2cnc3cc(F)c(-c4ccc(OCCCN5CCCCC5)nc4)cc3c21 + Cc1cnc(CNC(=O)c2c(=O)c3ccc(N4CCCN(C)CC4)nc3n3c2sc2ccccc23)cn1" reported_measurement=23.2
compound="COc1ccc([C@@H](O)c2cc(-c3ncnc4cc(N5CCOCC5)ccc34)c(F)cc2Cl)nn1 + Cc1[nH]c2ccc(F)cc2c1-c1nc2c3cccnc3c3ncccc3c2[nH]1" reported_measurement=97.8
compound="CC1COCCN1c1cc(C2(S(C)(=N)=O)CC2)nc(-c2ccnc3[nH]ccc23)n1 (stereo not given) + CN(C)c1ccc(Nc2c3ccc(NC(=O)CCN4CCCC4)cc3nc3cc(NC(=O)CCN4CCCC4)ccc23)cc1" reported_measurement=97.7
compound="CC(C)(O)C1CCC(Nc2ccc3ncc(-c4cccc(C(F)(F)F)c4)n3n2)CC1 (stereo not given) + CN(C)c1ccc(Nc2c3ccc(NC(=O)CCN4CCCC4)cc3nc3cc(NC(=O)CCN4CCCC4)ccc23)cc1" reported_measurement=18.4
